The following compounds are shown together with reported hepatic extraction ratio values.
Run description: Hepatic extraction in cynomolgus monkey
Format: ADME, Macaca fascicularis
Condition description: read-out: ERH
Enter the number alone.

# Given smiles, hepatic extraction ratio
measured = [
    ("COCCCOc1cc2c(cc1Cl)-c1cc(=O)c(C(=O)O)cn1N(C(C)(C)C)C2", 0.02),
]

What measured hepatic extraction ratio goes with `COCCCOc1cc2c(cc1Cl)-c1cc(=O)c(C(=O)O)cn1[C@H](C(C)(C)C)C2` ? 0.11

What measured hepatic extraction ratio goes with `COCCCOc1cc2c(cc1OC)-c1cc(=O)c(C(=O)O)cn1[C@H](C(C)C)C2` ? 0.43

====

Run description: Hepatic extraction in rat
Type: ADME
Condition description: read-out: ERH
The following compounds are shown together with reported hepatic extraction ratio values.

What measured hepatic extraction ratio goes with `COCCCOc1cc2c(cc1Cl)-c1cc(=O)c(C(=O)O)cn1N(C(C)(C)C)C2` ? 0.043

What measured hepatic extraction ratio goes with `COCCCOc1cc2c(cc1Cl)-c1cc(=O)c(C(=O)O)cn1[C@H](C(C)(C)C)C2` ? 0.071

What measured hepatic extraction ratio goes with `COCCCOc1cc2c(cc1OC)-c1cc(=O)c(C(=O)O)cn1[C@H](C(C)C)C2` ? 0.26

====

Run description: Volume of distribution at steady state in Rhesus monkey at 0.5 mg/kg, iv
Assay type: ADME, organism-based, Macaca mulatta
Condition description: in vivo, read-out: Vdss
Metric name: Vd (L/kg)
Output spec: scalar in L/kg, unitless text.

What measured Vd goes with `COCCCOc1cc2c(cc1COC)-c1cc(=O)c(C(=O)O)cn1N1[C@@H]2CCC1(C)C` ? 1.14

====

Run description: Volume of distribution at steady state in Sprague-Dawley rat at 1 mg/kg, iv
Type: ADME, organism-based
Condition description: in vivo, read-out: Vdss
Metric name: Vd
Kindly report the value followed by its unit.

What measured Vd goes with `COCCCOc1cc2c(cc1COC)-c1cc(=O)c(C(=O)O)cn1N1[C@@H]2CCC1(C)C` ? 0.69 L/kg

====

Run description: Clearance in Cynomolgus monkey at 0.4 mg/kg, iv
Assay type: ADME, organism-based, Macaca fascicularis
Condition description: in vivo
Metric name: clearance (mL/min/kg)
Output spec: scalar in mL/min/kg, unitless text.

What measured clearance goes with `COCCCOc1cc2c(cc1COC)-c1cc(=O)c(C(=O)O)cn1N1[C@@H]2CCC1(C)C` ? 2.5

====

The following compounds are shown together with reported clearance values.
Run description: In vivo clearance in cynomolgus monkey
Format: ADME, organism-based, Macaca fascicularis
Output spec: scalar in mL/min/kg, unitless text.

# Given smiles, clearance / mL/min/kg
measured = [
    ("COCCCOc1cc2c(cc1Cl)-c1cc(=O)c(C(=O)O)cn1[C@H](C(C)(C)C)C2", 2.83),
]

What measured clearance goes with `COCCCOc1cc2c(cc1Cl)-c1cc(=O)c(C(=O)O)cn1N(C(C)(C)C)C2` ? 0.533

What measured clearance goes with `COCCCOc1cc2c(cc1OC)-c1cc(=O)c(C(=O)O)cn1[C@H](C(C)C)C2` ? 11.3

====

Run description: Half life in Rhesus monkey at 0.5 mg/kg, iv
Format: ADME, organism-based, Macaca mulatta
Condition description: in vivo
Metric name: half-life (h)
Output spec: scalar in h, unitless text.

What measured half-life goes with `COCCCOc1cc2c(cc1COC)-c1cc(=O)c(C(=O)O)cn1N1[C@@H]2CCC1(C)C` ? 5.5

====

The following molecules are shown together with reported clearance values.
Run description: Clearance in Sprague-Dawley rat at […], iv measured after 24 hrs by LC/MS/MS method
Assay type: ADME, organism-based
Condition description: in vivo
Output spec: scalar in mL/min/kg, unitless text.

Some molecules with recorded clearance:
# Given smiles, clearance, mL/min/kg
data = [
    ("COCCCOc1cc2c(cc1Cl)-c1cc(=O)c(C(=O)O)cn1N1[C@@H]2CCC1(C)C", 4.5),
    ("CC(C)(C)N1Cc2cc(OCCCOc3cnn(C(F)F)c3)c(Cl)cc2-c2cc(=O)c(C(=O)O)cn21", 25),
    ("COCCCOc1cc2c(cc1OC(C)C)-c1cc(=O)c(C(=O)O)cn1N1[C@@H]2CCC1(C)C", 16.2),
    ("COCCCOc1cc2c(cc1Cl)-c1cc(=O)c(C(=O)O)cn1N(C(C)(C)C)C2", 19.7),
    ("COCCCOc1cc2c(cc1OC(F)(F)F)-c1cc(=O)c(C(=O)O)cn1N1[C@@H]2CCC1(C)C", 8),
]

What measured clearance goes with `COCCCOc1cc2c(cc1OCC(F)F)-c1cc(=O)c(C(=O)O)cn1N1[C@@H]2CCC1(C)C` ? 13.8

What measured clearance goes with `CCOc1cc2c(cc1OCCCOC)[C@H]1CCC(C)(C)N1n1cc(C(=O)O)c(=O)cc1-2` ? 20

What measured clearance goes with `COCCCOc1cc2c(cc1OC(F)F)-c1cc(=O)c(C(=O)O)cn1N1[C@@H]2CCC1(C)C` ? 9

====

Run description: Volume of distribution at steady state in Cynomolgus monkey at 0.4 mg/kg, iv
Format: ADME, organism-based, Macaca fascicularis
Condition description: in vivo, read-out: Vdss
Metric name: Vd (L/kg)
Output spec: scalar in L/kg, unitless text.

What measured Vd goes with `COCCCOc1cc2c(cc1COC)-c1cc(=O)c(C(=O)O)cn1N1[C@@H]2CCC1(C)C` ? 1.23

====

Run description: Oral bioavailability in dog at 5 mg/kg
Type: ADME, organism-based, Canis lupus familiaris
Condition description: in vivo
Metric name: bioavailability (%)
Output spec: scalar in %, unitless text.

What measured bioavailability goes with `COCCCOc1cc2c(cc1OC)-c1cc(=O)c(C(=O)O)cn1[C@H](C(C)C)C2` ? 90

====

Run description: Oral bioavailability in cynomolgus monkey at 5 mg/kg
Format: ADME, organism-based, Macaca fascicularis
Condition description: in vivo
The following compounds are shown together with reported bioavailability values.
Output spec: scalar in %, unitless text.

# Given smiles, Metric name, Recorded value
measured = [
    ("COCCCOc1cc2c(cc1Cl)-c1cc(=O)c(C(=O)O)cn1[C@H](C(C)(C)C)C2", "bioavailability", 120),
    ("COCCCOc1cc2c(cc1Cl)-c1cc(=O)c(C(=O)O)cn1N(C(C)(C)C)C2", "bioavailability", 48),
]

We next turn to a different compound, shown below.
What measured bioavailability goes with `COCCCOc1cc2c(cc1OC)-c1cc(=O)c(C(=O)O)cn1[C@H](C(C)C)C2` ? 84

====

Run description: Oral bioavailability in Sprague-Dawley rat at 3 mg/kg
Type: ADME, organism-based
Condition description: in vivo
Metric name: bioavailability (%)
Output spec: scalar in %, unitless text.

What measured bioavailability goes with `COCCCOc1cc2c(cc1COC)-c1cc(=O)c(C(=O)O)cn1N1[C@@H]2CCC1(C)C` ? 91

====

Run description: Half life in Sprague-Dawley rat at 1 mg/kg, iv
Assay type: ADME, organism-based
Condition description: in vivo
Metric name: half-life

What measured half-life goes with `COCCCOc1cc2c(cc1COC)-c1cc(=O)c(C(=O)O)cn1N1[C@@H]2CCC1(C)C` ? 2.5 h

====

Run description: Lipophilicity, logD of the compound
Assay type: physicochemical
Condition description: octanol/water
The following compounds are shown together with reported logD values.
Enter the number alone.

Some compounds with recorded logD:
# Compound, Metric name, Recorded value
rows = [
    ("COCCCOc1cc2c(cc1Cl)-c1cc(=O)c(C(=O)O)cn1[C@H](C(C)(C)C)C2", "logD", 2.5),
    ("COCCCOc1cc2c(cc1Cl)-c1cc(=O)c(C(=O)O)cn1N(C(C)(C)C)C2", "logD", 2),
]

What measured logD goes with COCCCOc1cc2c(cc1OC)-c1cc(=O)c(C(=O)O)cn1C(C1(C)CC1)C2 (stereo not given) ? 2.2

What measured logD goes with `COCCCOc1cc2c(cc1OC)-c1cc(=O)c(C(=O)O)cn1[C@H](C(C)C)C2` ? 2.1

What measured logD goes with `COCCCOc1cc2c(cc1Cl)-c1cc(=O)c(C(=O)O)cn1[C@H](C1(C)CC1)C2` ? 2.4

====

Run description: AUC (0 to infinity) Beagle dog at 0.5 mg/kg, iv
Format: ADME, organism-based, Canis lupus familiaris
Set-up: dose 0.5 mg/kg, route iv
Condition description: in vivo
Metric name: AUC(0-inf) (µM·h)
Output spec: scalar in µM·h, unitless text.

What measured AUC(0-inf) goes with `COCCCOc1cc2c(cc1COC)-c1cc(=O)c(C(=O)O)cn1N1[C@@H]2CCC1(C)C` ? 4.91
